TESTED ON: DRB10404 (DR4w14) (Homo sapiens, UniProt P01903+P01911, A100R/A169T/F76Y/I96L/K127E/L162R/M171V/N62H/P40V/Q125Y/R42H/S133A/S149N/S66Y/V209L/W38E)
Construct: used as sources of human HLA class II molecules; endogenous in cells; host or cells: BIN40 (EBV-transformed homozygous B cell line)
PROCEDURE SUMMARY: Class II peptide-binding assay, DR4w14;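 note: unlabeled peptides compete with a radiolabeled probe for binding to affinity-purified HLA-DR, neutral pH, class II amount titrated to bind a small fraction of label, IC50 approximates Kd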
SETUP CONDITIONS: read-out: DR4w14 nM (In IC50 Format); purified HLA DR4w14
pIC50: −log10 of the molar value. Ends that are not written are not given here.
MEASURED METRIC: pIC50

• NPVVHFFKNIVTPRTPPPS [Peptide 765.09] = 7.45
• YARFQAQTTLKAKT-NH2 [Peptide 717.55] = 8.37
• YARFQRQTTLKIAT [Peptide 716.01] = 6.96
• CPIAIMSALAMVYLGAKDS [Peptide 705.04] = 5.94
• YARFQSQTTLKAKE-NH2 [Peptide 717.28] = 7.89
• YARFASQTTLKAKT-NH2 [Peptide 782.02] = 7.83
• LLVIVELIPSTSS [Peptide 778.00] = 7.08

These measurements were taken from patent EP1388586A2.
